Measured ED50 accompanies every entry in the list below.
Tested on: carrageenin-induced paw edema
ASSAY_METHOD_TEXT: Anti-inflammatory: carrageenin-induced paw edema test in the rat (modified Winter et al.)
Type: in vivo
CONDITION_DESCRIPTION: po; rat; carrageenin paw edema; read-out: ED50 p.o. Anti-inflammatory (Carrageenin)

{"COMPOUND": "COc1ccc2cc([C@H](C)C(=O)O)ccc2c1", "TEST_SYSTEM": "carrageenin-induced paw edema", "ED50": "10 to 12 mg/kg"}

Please report the recorded ED50 for O=C(O)Cc1onc(-c2ccccc2)c1-c1ccccc1 .
120 mg/kg

Now the same for CC(C)Cc1ccc(C(C)C(=O)O)cc1 (stereo not drawn)
15 to 30 mg/kg

And the next one, COc1ccc(-c2cc(CC(=O)O)on2)cc1 ?
> 135 mg/kg

Same again, this time with CC(=O)Oc1ccccc1C(=O)O
60 to 90 mg/kg

Another compound: O=C(O)Cc1cc(-c2ccccc2)no1
70 to 80 mg/kg

Param item: COc1ccc(-c2noc(C(OC)C(=O)O)c2-c2ccc(OC)cc2)cc1 (stereo not drawn)
120 mg/kg

Repeat with Cc1cccc(Nc2ccccc2C(=O)O)c1C
45 to 55 mg/kg

Next compound: CC1=C(CC(=O)O)c2cc(F)ccc2/C1=C\c1ccc([S+](C)[O-])cc1 (stereo not drawn)
20 to 30 mg/kg

====

ASSAY_METHOD_TEXT: in vivo
CONDITION_DESCRIPTION: mouse, po, mice, read-out: Acute Toxicity (LD50) p.o.
MEASURED_ATTRIBUTE: LD50 (mg/kg)
Give the value, in units of mg/kg, as a plain number.

{"COMPOUND": "COc1ccc(-c2noc(CC(=O)O)c2-c2ccc(OC)cc2)cc1", "LD50 (mg/kg)": 1000}

We now examine a further compound.
Using the record for O=C(O)Cc1onc(-c2ccccc2)c1-c1ccccc1 [3,4-Diphenylisoxazol-5-acetic Acid] , report its LD50.
670

====

Form field: ED50 (one value per entry).
System: phenylquinone-induced muscular writhing
ASSAY_METHOD_TEXT: Analgesic: phenylquinone-induced muscular writhing test in mice (modified Siegmund et al.)
Type: in vivo
CONDITION_DESCRIPTION: Mus musculus, po; mice; phenylquinone writhing; read-out: ED50 p.o. Analgesic (Phenylquinone)

Some solved cases for reference:
{"COMPOUND": "COc1ccc2cc([C@H](C)C(=O)O)ccc2c1 [Naproxen]", "OBSERVED_RESULT": "7.5 to 10 mg/kg"}
{"COMPOUND": "Cc1cccc(Nc2ccccc2C(=O)O)c1C [Mefenamic Acid]", "OBSERVED_RESULT": "7.5 to 10 mg/kg"}
{"COMPOUND": "CC(=O)Oc1ccccc1C(=O)O [Aspirin]", "OBSERVED_RESULT": "70 to 100 mg/kg"}
{"COMPOUND": "COc1ccc(-c2noc(C(OC)C(=O)O)c2-c2ccc(OC)cc2)cc1 (centres unmarked)", "OBSERVED_RESULT": "60 mg/kg"}
{"COMPOUND": "COc1ccc(-c2cc(CC(=O)O)on2)cc1", "OBSERVED_RESULT": "60 mg/kg"}

Would you mind telling me what ED50 value was observed for CC1=C(CC(=O)O)c2cc(F)ccc2/C1=C\c1ccc([S+](C)[O-])cc1 (centres unmarked) [Sulindac] ?
7.5 to 10 mg/kg

What about this compound? O=C(O)Cc1cc(-c2ccccc2)no1 [3-Phenylisoxazol-5-acetic Acid, 3-phenylisoxazol-5-acetic acid]
60 to 90 mg/kg

Follow-up item: CC(C)Cc1ccc(C(C)C(=O)O)cc1 (centres unmarked) [Ibuprofen]
15 to 25 mg/kg
